Molecular target: leucine aminopeptidase (Leu-AP) (Sus scrofa)
Construct: purchased Boehringer-Mannheim Co
Sequence (P28839 whole entry): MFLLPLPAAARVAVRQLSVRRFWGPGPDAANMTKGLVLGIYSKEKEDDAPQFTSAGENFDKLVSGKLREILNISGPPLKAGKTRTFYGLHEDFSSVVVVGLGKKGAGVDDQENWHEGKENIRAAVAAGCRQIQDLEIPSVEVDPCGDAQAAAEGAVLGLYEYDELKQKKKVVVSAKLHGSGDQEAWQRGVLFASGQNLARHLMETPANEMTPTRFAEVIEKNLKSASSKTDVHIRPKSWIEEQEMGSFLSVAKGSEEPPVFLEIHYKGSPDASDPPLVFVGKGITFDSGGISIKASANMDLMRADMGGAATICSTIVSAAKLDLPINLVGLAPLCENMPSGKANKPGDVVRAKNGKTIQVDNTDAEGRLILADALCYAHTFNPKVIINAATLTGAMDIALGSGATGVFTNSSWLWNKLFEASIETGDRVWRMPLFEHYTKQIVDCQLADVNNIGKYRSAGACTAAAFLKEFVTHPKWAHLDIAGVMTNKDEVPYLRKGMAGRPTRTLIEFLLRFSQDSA
Test: Leu-AP (E.C. 3,4,11,1) inhibition assay
Type: biochemical
Details: Leu-AP (Boehringer-Mannheim), leucyl-β-naphthylamide substrate, pH 7.6, 37° C., 30 minutes; read-out: IC/50 Leu--AP: amount of the peptide to inhibit the intact activity of the target enzyme by 50% (converted)
Experimental: For enzyme assay, 0.25 ml of 2 mM […], 0.6 ml of 0.1 M Tris-HCl buffer, pH 7.6, and 0.1 ml of an aqueous solution containing a test compound were mixed and allowed to stand at 37° C. for 3 minutes. After a 20-fold dilution of Leu-AP (Boehringer-Mannheim Co.) in 0.1 M Tris-HCl buffer, pH 7.6 (0.05 ml) was added to the solution, the reaction was performed at 37° C. for 30 minutes. The inhibition percentage was measured as detailed in (1).
Each entry below carries its recorded IC50.
Express it in nM; write the number only.

Challenge: Given the molecule CC(C)C[C@@H](N)[C@H](O)C(=O)N[C@H](C(=O)N[C@@H](CCC(=O)O)C(=O)N[C@@H](CC(=O)O)C(=O)O)C(C)C [X--Val--Glu--Asp, (2S,3R)-AHMHA-Val-Glu-Asp] , what is its reported IC50?
Response given: 198

Challenge: Sample CC(C)C[C@@H](N)[C@H](O)C(=O)N[C@H](C(=O)N[C@@H](CC(=O)O)C(=O)O)C(C)C [X--Val--Asp] — what was its IC50?
Response given: 799

Challenge: Field request: IC50 | item: CC(C)C[C@@H](N)[C@H](O)C(=O)N[C@H](C(=O)N[C@H](C(=O)N[C@H](C(=O)O)C(C)C)C(C)C)C(C)C [X--Val--Val--Val, (2S,3R)-AHMHA-Val-Val-Val]
Response given: 3920
